# Tested on: Saccharomyces cerevisiae
# Assay protocol: protein stability index of tFT-peptide fusion (C-terminal peptide) (PSI (0-1 scale)); higher = more stable (slower turnover)
# Test conditions: genetic background: das1 deletion; temperature: 30 C
Property label: protein stability index
Form: value (number only, do not type unit).

Reference set, count: 2
Sequence text | Reported measurement
LRRIAKKHHKKK [SPB1 C-terminal 12 aa] | 0.699
TDEFDMLIGIDH [COG6 C-terminal 12 aa] | 0.697

// recorded protein stability index for VVNNRRQSRTPK [BLI1 C-terminal 12 aa] : 0.707

// recorded protein stability index for LRRLTSPSRTQP [BAG7 C-terminal 12 aa] : 0.719

// recorded protein stability index for DSQHKHDYSHSG [DCK1 C-terminal 12 aa] : 0.679

// recorded protein stability index for EGIFPANYVELV [LSB3 C-terminal 12 aa] : 0.702

* * *

The following sequences are listed with their measured protein stability index values.
# System: Saccharomyces cerevisiae
# Assay protocol: protein stability index of tFT-peptide fusion (C-terminal peptide) (PSI (0-1 scale)); higher = more stable (slower turnover)
# Test conditions: genetic background: wild type; temperature: 30 C
Form: value (number only, do not type unit).

Reference set, count: 3
Sequence text | System | Property label | Reported measurement
PIPPPPPLRPSS | Saccharomyces cerevisiae | protein stability index | 0.69
WSSSRPASGSSA | Saccharomyces cerevisiae | protein stability index | 0.708
FCCVAPLALPRM | Saccharomyces cerevisiae | protein stability index | 0.686

As a next step, examine the sequence that follows.
// recorded protein stability index for LWKAGRIGTIWS : 0.714

* * *

# Tested on: Saccharomyces cerevisiae
# Assay protocol: protein stability index of tFT-peptide fusion in wild type (PSI (0-1 scale)); higher = more stable (slower turnover)
# Test conditions: genetic background: wild type
Property label: protein stability index
Form: value (number only, do not type unit).

Reference set, count: 10
Sequence text | Reported measurement
RLIQPLPVQFFN | 0.0467
LVVYLSNVACIN | 0.344
RSLRVLLDLYFR | 0.64
CTACGYKFRTNN | 0.259
GLYMCSVGFWFR | 0.364
AITLPFCPLLLR | 0.138
KKILRQKMNHQN | 0.159
LFVYLSCVACIN | 0.0334
GLFMCSVGCWFR | 0.264
GLYMCSVGQWFR | 0.636

// recorded protein stability index for VRGAVGGWRLYG : 0.239

// recorded protein stability index for LVTRLDAIYFRI : 0.234

// recorded protein stability index for RVTRLDAIMFRI : 0.496

// recorded protein stability index for RSLRVLLPLYFRY : 0.259

// recorded protein stability index for FSMRWTFRYLVN : 0.0662

// recorded protein stability index for KKSKKGQKQKIN : 0.0679

// recorded protein stability index for AITLPMCPELLR : 0.663

// recorded protein stability index for RSLYVLLPLYFR : 0.261

// recorded protein stability index for RSCRVLLPLYFR : 0.275

// recorded protein stability index for VRGAVGGWRLAG : 0.233

// recorded protein stability index for VRGAVGGWRAVG : 0.365

* * *

The following sequences are listed with their measured protein stability index values.
# Test system: Saccharomyces cerevisiae
# Assay protocol: protein stability index of tFT-peptide fusion (C-terminal peptide) (PSI (0-1 scale)); higher = more stable (slower turnover)
# Test conditions: genetic background: das1 deletion; temperature: 37 C
Form: value (number only, do not type unit).

Reference set, count: 2
Sequence text | protein stability index
WLKLWSYVTHLG | 0.717
LGKSTLYMALNN | 0.695

As a next step, examine the sequence that follows.
// recorded protein stability index for LPNLPPTSPERH : 0.705

Recorded values, source the supplement of paper PMC10724198.
